EXPERIMENTAL PROTOCOL: in vitro
REPORTED PROPERTY: CC50 (µg/mL)

MOLECULE	RECORDED MEASUREMENT
CC(C)=CCC/C(C)=C/Cc1c(O)c(CC=C(C)C)c2c(c1O)C(=O)C1=C[C@@H]3CC4C(C)(C)O[C@](C/C=C(\C)C(=O)O)(C3=O)[C@@]14O2	11
C=C(C)C1CC[C@]2(C)C[C@H]1c1c(O)c3c(c(CC=C(C)C)c1O2)O[C@]12C(=C[C@@H]4CC1C(C)(C)O[C@]2(/C=C/C(C)C(=O)O)C4=O)C3=O (stereo partly drawn)	5.4
CC(C)=CCC[C@@]1(C)C=Cc2c(O)c3c(c(CC=C(C)C)c2O1)O[C@]12C(=C[C@@H]4CC1C(C)(C)O[C@]2(C/C=C(/CO)C(=O)O)C4=O)C3=O [Gh-1602, 30-hydroxyepigambogic acid]	0.94

====

The entries below are paired with their reported IC50.
Test system: Human lung carcinoma cell A549
EXPERIMENTAL PROTOCOL: cells
CONDITION CONTEXT: A549, read-out: IC50 (50% inhibition concentration), A549

COMPOUND	IC50
CC(C)=CCC[C@@]1(C)Oc2c(c(O)c3c(c2CC=C(C)C)O[C@]24C(=C[C@@H]5CC2C(C)(C)OC4(C/C=C(/C)C(=O)O)C5=O)C3=O)C[C@H]1O (stereo in doubt)	0.14 µg/mL
CC(C)=CCc1c2c(c(O)c3c1O[C@]14C(=C[C@@H]5CC1C(C)(C)OC4(C/C=C(/C)C(=O)O)C5=O)C3=O)C=C[C@@](C)(CCC(O)C(C)(C)O)O2 (stereo partly drawn)	0.19 µg/mL
CC(C)=CCc1c2c(c(O)c3c1O[C@]14C(=C[C@@H]5CC1C(C)(C)OC4(C/C=C(/C)C(=O)O)C5=O)C3=O)C=C[C@](C)(CCC(O)C(C)(C)O)O2 (stereo partly drawn)	0.25 µg/mL
CC(C)=CCC[C@@]1(C)C=Cc2c(O)c3c(c(CC=C(C)C)c2O1)O[C@]12C(=C[C@@H]4CC1C(C)(C)O[C@]2(C/C=C(/CO)C(=O)O)C4=O)C3=O [Gh-1602, 30-hydroxyepigambogic acid]	0.4 µg/mL
CC(C)=CCC[C@]1(C)C=Cc2c(O)c3c(c(CC(O)C(C)(C)O)c2O1)O[C@]12C(=C[C@@H]4CC1C(C)(C)OC2(C/C=C(/C)C(=O)O)C4=O)C3=O (stereo partly drawn)	0.46 µg/mL
CC(C)=CCC[C@@]1(C)C=Cc2c(O)c3c(c(CC(O)C(C)(C)O)c2O1)O[C@]12C(=C[C@@H]4CC1C(C)(C)OC2(C/C=C(/C)C(=O)O)C4=O)C3=O (stereo partly drawn)	0.22 µg/mL

====

Test system: Human colon adenocarcinoma cell HT-29
EXPERIMENTAL PROTOCOL: cells
CONDITION CONTEXT: HT-29, read-out: LC50 (50% lethal concentration)
y if CC50 is below 9 µg/mL. n if not; exact matches included in n.

MOLECULE	TEST SYSTEM	CLASS LABEL
C=C(C)[C@@H]1CC[C@@]2(C)CC1c1c(O)c3c(c(CC=C(C)C)c1O2)O[C@]12C(=C[C@@H]4CC1C(C)(C)O[C@]2(/C=C/C(C)C(=O)O)C4=O)C3=O (some centres unmarked)	Human colon adenocarcinoma cell HT-29	y
CC(C)=CCc1c2c(c(O)c3c1O[C@]1(C)CCC4C3C1C4(C)C)C(=O)C1=C[C@@H]3CC4C(C)(C)OC(C/C=C(/C)C(=O)O)(C3=O)[C@@]14O2	Human colon adenocarcinoma cell HT-29	y
CC(C)=CCC[C@]1(C)C=Cc2c(O)c3c(c(CC=C(C)C)c2O1)O[C@]12C(=C[C@@H]4CC1C(C)(C)O[C@]2(C/C=C(\C)C(=O)O)C4=O)C3=O	Human colon adenocarcinoma cell HT-29	y
CC(C)=CCC/C(C)=C/Cc1c(O)c(CC=C(C)C)c2c(c1O)C(=O)C1=C[C@@H]3CC4C(C)(C)O[C@](C/C=C(\C)C(=O)O)(C3=O)[C@@]14O2	Human colon adenocarcinoma cell HT-29	n
CC(C)=CCc1c2c(c(O)c3c1O[C@@]1(C)CCC4C3C1C4(C)C)C(=O)C1=C[C@@H]3CC4C(C)(C)O[C@](C/C=C(/C)C(=O)O)(C3=O)[C@@]14O2	Human colon adenocarcinoma cell HT-29	y

====

Tested on: Human colon adenocarcinoma cell HT-29
EXPERIMENTAL PROTOCOL: cells
CONDITION CONTEXT: HT-29, read-out: LC50 (50% lethal concentration)

CHEMICAL STRUCTURE	MEASURE UNIT	CC50
CC(C)=CCc1c2c(c(O)c3c1O[C@]14C(=C[C@@H]5CC1C(C)(C)O[C@]4(C/C=C(\C)C=O)C5=O)C3=O)C=CC(C)(C)O2	µg/mL	4
CC(C)=CCC[C@]1(C)C[C@H](O)c2c(O)c3c(c(CC=C(C)C)c2O1)O[C@]12C(=C[C@@H]4CC1C(C)(C)O[C@]2(C/C=C(/C)C(=O)O)C4=O)C3=O	µg/mL	6.8
CC(C)=CCC[C@]1(C)C=Cc2c(O)c3c(c(CC=C(C)C)c2O1)O[C@]12C(=CC4CC1C(C)(C)O[C@]2(C/C=C(/C)C(=O)O)C4=O)C3=O	µg/mL	0.61

====

System: Human colon adenocarcinoma cell HT-29
EXPERIMENTAL PROTOCOL: cells
CONDITION CONTEXT: HT-29, read-out: LC50 (50% lethal concentration)
REPORTED PROPERTY: CC50 (µg/mL)

COMPOUND	REPORTED PROPERTY	RECORDED MEASUREMENT
CC(C)=CCC/C(C)=C/Cc1c(O)c(CC=C(C)C)c2c(c1O)C(=O)C1=CC3CC4C(C)(C)O[C@](CC=C(C)C)(C3=O)[C@@]14O2 (stereo in doubt) [Gh-4301, desoxygambogenin]	CC50	42
CC(C)=CCC[C@@]1(C)C=Cc2c(O)c3c(c(CC=C(C)C)c2O1)O[C@]12C(=C[C@@H]4CC1C(C)(C)O[C@]2(C/C=C(\C)C(=O)O)C4=O)C3=O [Gh-1642, epiisogambogic acid]	CC50	4.8
CC(C)=CCC/C(C)=C/Cc1c(O)c(CC=C(C)C)c2c(c1O)C(=O)C1=C[C@@H]3CC4C(C)(C)O[C@](C/C=C(/C)C(=O)O)(C3=O)[C@@]14O2 [Gh-2505, gambogenic acid]	CC50	4.4
CC(C)=CCC[C@@]1(C)C=Cc2c(O)c3c(c(CC=C(C)C)c2O1)O[C@]12C(=C[C@@H]4CC1C(C)(C)O[C@]2(C/C=C(/C)C(=O)O)C4=O)C3=O [Gh-2606, epigambogic acid]	CC50	2
C=C(C)C1CC[C@]2(C)C[C@H]1c1c(O)c3c(c(CC=C(C)C)c1O2)O[C@]12C(=C[C@@H]4CC1C(C)(C)O[C@]2(/C=C/C(C)C(=O)O)C4=O)C3=O (some centres unmarked) [Gh-2508]	CC50	5.5

====

System: Human promyelocytic leukemia cell HL-60
EXPERIMENTAL PROTOCOL: cells
CONDITION CONTEXT: HL-60, read-out: IC50 (50% inhibition concentration)
REPORTED PROPERTY: IC50 (µg/mL)

COMPOUND	TEST SYSTEM	MEASURE UNIT	RECORDED MEASUREMENT
C=C(C)C1CC[C@]2(C)C[C@H]1c1c(O)c3c(c(CC=C(C)C)c1O2)O[C@]12C(=C[C@@H]4CC1C(C)(C)O[C@]2(/C=C/C(C)C(=O)O)C4=O)C3=O (some centres unmarked)	Human promyelocytic leukemia cell HL-60	µg/mL	0.28
CC(C)=CCC[C@@]1(C)C=Cc2c(O)c3c(c(CC=C(C)C)c2O1)O[C@]12C(=C[C@@H]4CC1C(C)(C)O[C@]2(C/C=C(\C)C(=O)O)C4=O)C3=O [Gh-1642, epiisogambogic acid]	Human promyelocytic leukemia cell HL-60	µg/mL	6
CC(C)=CCC[C@]1(C)C[C@H](O)c2c(O)c3c(c(CC=C(C)C)c2O1)O[C@]12C(=C[C@@H]4CC1C(C)(C)O[C@]2(C/C=C(/C)C(=O)O)C4=O)C3=O	Human promyelocytic leukemia cell HL-60	µg/mL	0.18
C=C(C)[C@@H]1CC[C@@]2(C)CC1c1c(O)c3c(c(CC=C(C)C)c1O2)O[C@]12C(=C[C@@H]4CC1C(C)(C)O[C@]2(/C=C/C(C)C(=O)O)C4=O)C3=O (some centres unmarked)	Human promyelocytic leukemia cell HL-60	µg/mL	0.2
CC(C)=CCc1c2c(c(O)c3c1O[C@@]1(C)CCC4C3C1C4(C)C)C(=O)C1=C[C@@H]3CC4C(C)(C)O[C@](C/C=C(/C)C(=O)O)(C3=O)[C@@]14O2	Human promyelocytic leukemia cell HL-60	µg/mL	0.49
C=C(C)[C@@H]1CC[C@@]2(C)CC1c1c(O)c3c(c(CC=C(C)C)c1O2)O[C@]12C(=C[C@@H]4CC1C(C)(C)O[C@]2(C/C=C(/C)C(=O)O)C4=O)C3=O	Human promyelocytic leukemia cell HL-60	µg/mL	1
CC(C)=CCC[C@@]1(C)C=Cc2c(O)c3c(c(CC=C(C)C)c2O1)O[C@]12C(=C[C@@H]4CC1C(C)(C)O[C@]2(C/C=C(/C)C(=O)O)C4=O)C3=O [Gh-2606, epigambogic acid]	Human promyelocytic leukemia cell HL-60	µg/mL	0.66
CC(C)=CCc1c2c(c(O)c3c1O[C@]14C(=C[C@@H]5CC1C(C)(C)O[C@]4(C/C=C(\C)C=O)C5=O)C3=O)C=CC(C)(C)O2	Human promyelocytic leukemia cell HL-60	µg/mL	1
CC(C)=CCC/C(C)=C/Cc1c(O)c(CC=C(C)C)c2c(c1O)C(=O)C1=CC3CC4C(C)(C)O[C@](CC=C(C)C)(C3=O)[C@@]14O2 (stereo in doubt)	Human promyelocytic leukemia cell HL-60	µg/mL	3.5
CC(C)=CCC[C@]1(C)C=Cc2c(O)c3c(c(CC=C(C)C)c2O1)O[C@]12C(=C[C@@H]4CC1C(C)(C)O[C@]2(C/C=C(\C)C(=O)O)C4=O)C3=O	Human promyelocytic leukemia cell HL-60	µg/mL	8
CC(C)=CCC[C@]1(C)C=Cc2c(O)c3c(c(CC=C(C)C)c2O1)O[C@]12C(=CC4CC1C(C)(C)O[C@]2(C/C=C(/C)C(=O)O)C4=O)C3=O	Human promyelocytic leukemia cell HL-60	µg/mL	0.17
CC(C)=CCC/C(C)=C/Cc1c(O)c(CC=C(C)C)c2c(c1O)C(=O)C1=C[C@@H]3CC4C(C)(C)O[C@](C/C=C(\C)C(=O)O)(C3=O)[C@@]14O2	Human promyelocytic leukemia cell HL-60	µg/mL	9
CC(C)=CCc1c2c(c(O)c3c1O[C@]1(C)CCC4C3C1C4(C)C)C(=O)C1=C[C@@H]3CC4C(C)(C)OC(C/C=C(/C)C(=O)O)(C3=O)[C@@]14O2	Human promyelocytic leukemia cell HL-60	µg/mL	0.13
CC(C)=CCC/C(C)=C/Cc1c(O)c(CC=C(C)C)c2c(c1O)C(=O)C1=C[C@@H]3CC4C(C)(C)O[C@](C/C=C(/C)C(=O)O)(C3=O)[C@@]14O2	Human promyelocytic leukemia cell HL-60	µg/mL	0.75
